# credit: the supplement of paper PMC12042874

- protocol-details: amyloid nucleation score (Sup35N fusion, yeast selection) (log enrichment); library NNK3; higher = more nucleation; inactive = no reads after selection;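 note: zero at mode of non-aggregating sequences after 7 days selection at 30°C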
readout: amyloid nucleation score

FTNNCYHLAMY: -0.456
LQVVNLSR: inactive
PIAFQRKSSCIKSRESGSVR: inactive
VACRVVGNSSVWVFRRHVEN: inactive
SEYYCYICLMVSIGFSANLL: inactive
LSYCKRHIRRRLFVG: -0.208
VVIVLLKFR: inactive
RHRLAHMRNKWRGQVHCPKG: inactive
KSFQGSITILVFSWLINNPR: inactive
INWYIHFRPLWQGFR: inactive

Query FGVSNRMWRKSRNLSGSPRA yields amyloid nucleation score of inactive

The value of amyloid nucleation score measured for the substance ERMQHGSLSVRYFKKSSVSG turned out to be inactive

Lookup result for EYSRMSSNQMVYSLVIFHNL ; measured amyloid nucleation score: 0.509

GET /value?item= AKVQWAV &field=amyloid nucleation score returns -0.106

amyloid nucleation score for FPGCSRENLTVGLSVTRTEG is inactive

----------
- protocol-details: amyloid nucleation score (Sup35N fusion, yeast selection) (log enrichment); library NNK1; higher = more nucleation; inactive = no reads after selection
Decide using amyloid nucleation score: a value greater than or equal to 0.4 is true (1), a smaller one is false (0).

For this substance, is measured amyloid nucleation score 0.4 or higher? RLLVFQSCKFVRGTSLCLVT
true (1)

Could you please find out whether CKCWFM has amyloid nucleation score that meets 0.4 or exceeds it?
false (0)

Tell me whether amyloid nucleation score is at least 0.4 here: FTLGVFSL
false (0)

Item LCLLIDNTYIVDVFFYVLSQ with amyloid nucleation score of 0.4 or above?
true (1)

Answer whether amyloid nucleation score of GYRCSWNDPMVNTVFFV is greater than or equal to 0.4.
true (1)

Quick check, amyloid nucleation score >= 0.4? GACHLGDDYFRSSVVVTKSA
false (0)

amyloid nucleation score >= 0.4 for SMSPVSSVTN ?
false (0)

Does LVPNLLVHGVYY have a reported amyloid nucleation score of at least 0.4?
false (0)

Reported amyloid nucleation score at or above 0.4? ETAEMIAVPDRAHF
true (1)

Determine whether measured amyloid nucleation score meets or exceeds 0.4 for HHRVCSMKWSNCYELNVMGE
false (0)

Given RRVGVYDGLRIFS , state whether its amyloid nucleation score is at least 0.4.
false (0)

Test whether the substance DRFRRTNAIGLVHMDSGKG records amyloid nucleation score of 0.4 or higher.
true (1)

# check: amyloid nucleation score of VAMLQFASFQSSW is greater than or equal to 0.4
false (0)

API: above_or_equal(metric=amyloid nucleation score, cutoff=0.4) for item TFFRTTCTICCM
true (1)

Identify whether the reported amyloid nucleation score of the following substance is 0.4 or greater: RDSITITVNCT
true (1)

Check the entry AQLWRARREFSFMTPMPSVS : does amyloid nucleation score equal or exceed 0.4?
false (0)

Could you please find out whether KVNTLCEHSSIHRPVVGNGG has amyloid nucleation score that meets 0.4 or exceeds it?
false (0)

Check this substance for amyloid nucleation score at or above 0.4: HIYNDSVRSFWIFQ
true (1)

Test whether the substance DDVMSKVPCVTTYSVVLLMR records amyloid nucleation score of 0.4 or higher.
true (1)

# bool: amyloid nucleation score of SKDGCSCFDIDVAMEGLLMR >= 0.4
false (0)

Hi, just wondering whether TVWSHCIEFFGHLRKLRSLL shows amyloid nucleation score of 0.4 or higher.
true (1)

Is the recorded value of amyloid nucleation score equal to or greater than 0.4 for this substance? WILVGMGLGFHFFW
true (1)

API: above_or_equal(metric=amyloid nucleation score, cutoff=0.4) for item MRPVGTRFSSIP
false (0)

State whether the measured amyloid nucleation score reaches 0.4, counting equality as reaching it, for IWRTLWMWSVGTSTNPVHSL
false (0)

Hi team, for ISRSICKREVLQVDR , is the recorded amyloid nucleation score at or above 0.4?
false (0)

Does HRPDIHFVVPVTAP have a reported amyloid nucleation score of at least 0.4?
false (0)

Determine whether this substance has amyloid nucleation score no lower than 0.4: GYNVAFILHTTVKCVCVEM
true (1)

Determine whether measured amyloid nucleation score meets or exceeds 0.4 for SMLLSRKHCGGVNEKHFM
false (0)

Exam item: decide whether the reported amyloid nucleation score for SQNVPDCVLKTLRFDVPCCR is at least 0.4.
true (1)

Please tell me: is the substance PANSSMSSNY at or over 0.4 in terms of amyloid nucleation score?
false (0)
